Provide the recorded Population Hoechst High Intensity Objects (%) for the entries that follow.
- Tested on: U2OS
- PROTOCOL_TEXT: Multiplex assay against U2OS
- Format: toxicity, cell-based
- CONDITION_DETAILS: human, 48 h, 1 µM, compound concentration 1 uM, replicate 2
Numbers only, in %.

In one line, give reported Population Hoechst High Intensity Objects (%) of the entry S=C(NCCCc1c[nH]cn1)NCCCN(Cc1ccc(Cl)c(Cl)c1)c1ccc(Br)cn1 .
0

Tell me Population Hoechst High Intensity Objects (%) reported for OCCCNc1cc(-c2ccnc(Nc3cccc(Cl)c3)n2)ccn1
12

Consider the compound CC(C)(O)C(=O)N1CCN(c2ccc(C(F)(F)F)c(C3=C(c4c[nH]c5ccccc45)C(=O)NC3=O)c2)CC1 . State its measured Population Hoechst High Intensity Objects (%).
1

Tell me measured Population Hoechst High Intensity Objects (%) for Cc1ccc(OCC(O)C(C)NC(C)C)c2c1CCC2.Cl (centres undefined) please.
2

In one line, give reported Population Hoechst High Intensity Objects (%) of the entry CN1CCN2c3ccccc3Cc3ccccc3C2C1.Cl (centres undefined) [MIANSERIN HYDROCHLORIDE] .
1

# map each compound to its Population Hoechst High Intensity Objects (%)
1. Cc1cc(O)c(-c2ccc([C@@H](C)CN(C)C)cc2)c2c1[nH]c(=O)c1sccc12
2. CCCCCCNC(=O)Nc1ccc(S(=O)(=O)Nc2ccc(CCNC[C@H](O)COc3ccc(O)cc3)cc2)cc1 [L-755507]

15
4

// each listed compound needs a value for Population Hoechst High Intensity Objects (%)
1. CCCCC[C@H](O)/C=C/[C@H]1[C@H](O)CC(=O)[C@@H]1CCCCCCC(=O)O [ALPROSTADIL]
2. Cc1nn(C)c2nc(NNC(=O)Nc3cc(Cl)nc(Cl)c3)cc(C(C)C)c12

1: 3; 2: 1
